- System: Enterococcus faecalis
- test.name: Antibacterial activity against Enterococcus faecalis bc11148-2
- Format: functional
The entries below come with measured MIC values attached.
The response must be a number in µg/mL with no trailing unit.

Find the recorded MIC belonging to C=C[C@]12OC(=O)N(CCCCn3cnc(-c4ccc(OC)nc4)c3)[C@@H]1[C@@H](C)C(=O)[C@H](C)C[C@@](C)(OC)[C@H](O[C@@H]1O[C@H](C)C[C@H](N(C)C)[C@H]1O)[C@@H](C)C(=O)[C@@H](C)C(=O)O[C@@H]2CC and report it. 0.78

Could you do the same for C=C[C@]12OC(=O)N(CCCCn3cnc(-c4ccc(F)nc4)c3)[C@@H]1[C@@H](C)C(=O)[C@H](C)C[C@@](C)(OC)[C@H](O[C@@H]1O[C@H](C)C[C@H](N(C)C)[C@H]1O)[C@@H](C)C(=O)[C@@H](C)C(=O)O[C@@H]2CC , please? 0.4

Could you do the same for C=C[C@]12OC(=O)N(CCCCn3cnc(-c4cnc(C)cn4)c3)[C@@H]1[C@@H](C)C(=O)[C@H](C)C[C@@](C)(OC)[C@H](O[C@@H]1O[C@H](C)C[C@H](N(C)C)[C@H]1O)[C@@H](C)C(=O)[C@@H](C)C(=O)O[C@@H]2CC , please? 0.78

Could you do the same for C=C[C@]12OC(=O)N(CCCCn3cnc(-c4ccc(O)nc4)c3)[C@@H]1[C@@H](C)C(=O)[C@H](C)C[C@@](C)(OC)[C@H](O[C@@H]1O[C@H](C)C[C@H](N(C)C)[C@H]1O)[C@@H](C)C(=O)[C@@H](C)C(=O)O[C@@H]2CC , please? 3.13

----------
- Test system: Streptococcus pneumoniae
- test.name: Antibacterial activity against Streptococcus pneumoniae Erm 6849
- Assay type: functional
The entries below come with measured MIC values attached.
The response must be a number in µg/mL with no trailing unit.

Find the recorded MIC belonging to C=C[C@]12OC(=O)N(CCCCn3ccc4nc(C(C)=O)ccc43)[C@@H]1[C@@H](C)C(=O)[C@H](C)C[C@@](C)(OC)[C@H](O[C@@H]1O[C@H](C)C[C@H](N(C)C)[C@H]1O)[C@@H](C)C(=O)[C@@H](C)C(=O)O[C@@H]2CC and report it. 3.13

Could you do the same for C=C[C@]12OC(=O)N(CCCCn3cc(Cl)c4ncccc43)[C@@H]1[C@@H](C)C(=O)[C@H](C)C[C@@](C)(OC)[C@H](O[C@@H]1O[C@H](C)C[C@H](N(C)C)[C@H]1O)[C@@H](C)C(=O)[C@@H](C)C(=O)O[C@@H]2CC , please? 3.13

Could you do the same for C=C[C@]12OC(=O)N(CCCCn3cnc(-c4ccc(OC)nc4)c3)[C@@H]1[C@@H](C)C(=O)[C@H](C)C[C@@](C)(OC)[C@H](O[C@@H]1O[C@H](C)C[C@H](N(C)C)[C@H]1O)[C@@H](C)C(=O)[C@@H](C)C(=O)O[C@@H]2CC , please? 0.4

----------
- Tested on: Streptococcus pneumoniae
- test.name: Antibacterial activity against Streptococcus pneumoniae Erm 6849
- Type: functional
The entries below come with measured MIC values attached.
The response must be a number in µg/mL with no trailing unit.

structure_as_smiles=C=C[C@]12OC(=O)N(CCCCn3cnc(-c4cccnc4)c3)[C@@H]1[C@@H](C)C(=O)[C@H](C)C[C@@](C)(OC)[C@H](O[C@@H]1O[C@H](C)C[C@H](N(C)C)[C@H]1O)[C@@H](C)C(=O)[C@@H](C)C(=O)O[C@@H]2CC target_or_test_system="Streptococcus pneumoniae" measured_value=0.2

# get_value(readout= MIC, system= Streptococcus pneumoniae) for C=C[C@]12OC(=O)N(CCCCn3cnc(-c4ccc(F)nc4)c3)[C@@H]1[C@@H](C)C(=O)[C@H](C)C[C@@](C)(OC)[C@H](O[C@@H]1O[C@H](C)C[C@H](N(C)C)[C@H]1O)[C@@H](C)C(=O)[C@@H](C)C(=O)O[C@@H]2CC 0.78

Could you do the same for C=C[C@]12OC(=O)N(CCCCn3cnc(-c4ccc(C)nc4)c3)[C@@H]1[C@@H](C)C(=O)[C@H](C)C[C@@](C)(OC)[C@H](O[C@@H]1O[C@H](C)C[C@H](N(C)C)[C@H]1O)[C@@H](C)C(=O)[C@@H](C)C(=O)O[C@@H]2CC , please? 0.1

Could you do the same for C=C[C@]12OC(=O)N(CCCCn3cnc(-c4ccc(O)nc4)c3)[C@@H]1[C@@H](C)C(=O)[C@H](C)C[C@@](C)(OC)[C@H](O[C@@H]1O[C@H](C)C[C@H](N(C)C)[C@H]1O)[C@@H](C)C(=O)[C@@H](C)C(=O)O[C@@H]2CC , please? 12.5

Values were extracted from ChEMBL document CHEMBL1138190.
